Origin of measurements: ChEMBL document CHEMBL2218924

- targetUnderTest: Inhibitor of nuclear factor kappa-B kinase subunit alpha (Homo sapiens) (UniProt O15111)
- Sequence (whole entry): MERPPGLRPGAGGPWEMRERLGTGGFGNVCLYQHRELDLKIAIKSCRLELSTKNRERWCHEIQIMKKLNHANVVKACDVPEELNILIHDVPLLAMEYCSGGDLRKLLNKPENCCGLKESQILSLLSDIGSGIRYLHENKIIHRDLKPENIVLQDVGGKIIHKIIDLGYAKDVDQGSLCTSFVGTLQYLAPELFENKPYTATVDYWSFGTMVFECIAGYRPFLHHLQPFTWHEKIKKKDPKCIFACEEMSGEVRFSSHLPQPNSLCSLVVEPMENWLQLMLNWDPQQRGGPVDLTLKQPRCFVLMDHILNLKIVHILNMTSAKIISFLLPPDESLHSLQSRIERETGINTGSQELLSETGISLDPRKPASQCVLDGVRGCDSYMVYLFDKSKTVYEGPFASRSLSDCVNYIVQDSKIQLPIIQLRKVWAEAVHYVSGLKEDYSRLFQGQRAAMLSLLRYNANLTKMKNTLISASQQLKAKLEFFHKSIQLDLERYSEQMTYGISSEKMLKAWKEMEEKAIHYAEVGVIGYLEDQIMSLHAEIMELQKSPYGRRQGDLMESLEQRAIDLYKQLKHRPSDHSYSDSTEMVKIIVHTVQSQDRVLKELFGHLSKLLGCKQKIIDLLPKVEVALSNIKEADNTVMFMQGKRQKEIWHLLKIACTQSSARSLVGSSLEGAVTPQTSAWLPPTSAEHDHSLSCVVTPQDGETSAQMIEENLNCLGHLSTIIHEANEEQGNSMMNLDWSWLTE
- experimentalSetup: at 1 µM
Measured residual activity by item
Numbers only; they are read as %.

Some entries whose results are on file:
| smi | residual activity, % |
| --- | --- |
| O=C1Nc2ccc(Br)cc2/C1=C\c1cc2c([nH]1)CCCC2 | 102 |
| c1ccc2c(-c3ccncc3)c[nH]c2c1 | 97 |

Lab note: next compound to report on.
Returns the measured residual activity for the input compound. Input: COc1cc2ncnc(Nc3ccc(O)c(Br)c3)c2cc1OC
97

====

Each record here notes measured residual activity.
- targetUnderTest: Dual specificity protein kinase CLK2 (Homo sapiens) (UniProt P49760)
- Sequence (P49760 whole entry, looked up): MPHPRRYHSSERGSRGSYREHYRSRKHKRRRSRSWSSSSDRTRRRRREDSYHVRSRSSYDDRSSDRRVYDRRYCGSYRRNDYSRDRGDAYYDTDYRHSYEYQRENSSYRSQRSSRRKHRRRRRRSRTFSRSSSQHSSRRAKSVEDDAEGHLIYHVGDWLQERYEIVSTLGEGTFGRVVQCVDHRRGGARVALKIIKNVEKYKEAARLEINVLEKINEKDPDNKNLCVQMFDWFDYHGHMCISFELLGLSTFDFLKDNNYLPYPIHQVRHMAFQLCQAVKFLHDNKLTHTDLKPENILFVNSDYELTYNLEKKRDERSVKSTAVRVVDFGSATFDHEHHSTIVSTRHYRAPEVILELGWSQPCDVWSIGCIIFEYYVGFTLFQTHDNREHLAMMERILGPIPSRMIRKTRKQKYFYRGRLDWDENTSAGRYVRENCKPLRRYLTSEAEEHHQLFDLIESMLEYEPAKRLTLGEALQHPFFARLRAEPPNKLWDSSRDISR
- experimentalSetup: at 10 µM
Your answer should be a plain number; it is taken to be in %.

As a guide, the following entries are already answered.
| smi | residual activity / % |
| --- | --- |
| Cn1cnc2cc3c(Nc4cccc(Br)c4)ncnc3cc21 | 75 |
| O=C1NC(=O)/C(=C\c2ccc3nccnc3c2)S1 | 6 |
| CC#CC(=O)Nc1cc2c(Nc3ccc(F)c(Cl)c3)ncnc2cn1 | 88 |
| Oc1c2ccccc2c2c3c(cccc13)N=N2 | 21 |
| NC(=O)c1ccc2[nH]c(-c3ccc(Oc4ccc(Cl)cc4)cc3)nc2c1 | 104 |

Consider the molecule O=C(Nc1cccc(Nc2nccc(Nc3cccc(C(F)(F)F)c3)n2)c1)C1CC1 and give its measured residual activity.
82

Report residual activity for Cc1cc(Nc2nc(-c3ccccc3)nc3ccccc23)n[nH]1 please.
8

Suppose we examine the molecule O=C1Nc2ccc(Br)cc2/C1=C\c1cc2c([nH]1)CCCC2 ; what residual activity value has been reported?
101

====

// values below are reported residual activity
- targetUnderTest: Cyclin-dependent kinase 5/CDK5 activator 1 (Homo sapiens) (UniProt Q00535+Q15078)
- Sequence (Q00535 whole entry): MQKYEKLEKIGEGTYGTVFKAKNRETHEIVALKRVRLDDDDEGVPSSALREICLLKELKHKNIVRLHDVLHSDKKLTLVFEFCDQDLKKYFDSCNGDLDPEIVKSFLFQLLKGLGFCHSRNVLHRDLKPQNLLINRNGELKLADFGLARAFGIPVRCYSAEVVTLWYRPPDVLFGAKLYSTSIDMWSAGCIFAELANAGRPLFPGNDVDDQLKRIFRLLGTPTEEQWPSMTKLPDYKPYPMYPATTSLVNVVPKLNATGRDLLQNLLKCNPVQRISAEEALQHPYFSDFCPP
- Sequence (Q15078 99-307 partner limits assumed): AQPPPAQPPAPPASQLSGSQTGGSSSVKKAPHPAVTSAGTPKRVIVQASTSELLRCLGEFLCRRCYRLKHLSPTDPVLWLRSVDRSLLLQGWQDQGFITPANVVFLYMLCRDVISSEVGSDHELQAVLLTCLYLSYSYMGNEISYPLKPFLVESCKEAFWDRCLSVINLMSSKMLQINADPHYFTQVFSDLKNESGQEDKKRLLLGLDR
- experimentalSetup: at 1 µM
I only need the number, in %, no unit after it.

Sample records with residual activity:
| smi | targetUnderTest | measured |
| --- | --- | --- |
| CN(C)CCCn1cc(C2=C(c3c[nH]c4ccccc34)C(=O)NC2=O)c2ccccc21 | Cyclin-dependent kinase 5/CDK5 activator 1 (Homo sapiens) (UniProt Q00535+Q15078) | 81 |
| O=C1NC(=O)/C(=C/c2ccc3c(c2)OC(F)(F)O3)S1 | Cyclin-dependent kinase 5/CDK5 activator 1 (Homo sapiens) (UniProt Q00535+Q15078) | 101 |
| CO[C@H]1C[C@@H]2CC[C@@H](C)[C@@](O)(O2)C(=O)C(=O)N2CCCC[C@H]2C(=O)O[C@H]([C@H](C)C[C@@H]2CC[C@@H](O)[C@H](OC)C2)CC(=O)[C@H](C)/C=C(\C)[C@@H](O)[C@@H](OC)C(=O)[C@H](C)C[C@H](C)/C=C/C=C/C=C/1C | Cyclin-dependent kinase 5/CDK5 activator 1 (Homo sapiens) (UniProt Q00535+Q15078) | 78 |

Please give the measured residual activity for this compound: CO[C@@H]1[C@H](N(C)C(=O)c2ccccc2)C[C@H]2O[C@]1(C)n1c3ccccc3c3c4c(c5c6ccccc6n2c5c31)C(=O)NC4
76
